- Tested on: Pseudomonas aeruginosa MK1184
- assay_text: MIC, NCCLS broth microdilution
- Assay type: cell-based
- condition: antibiotic alone, no inhibitor
measure_name: MIC of antibiotic

Given Nc1nc(C(=NOCc2cc(=O)c(O)cn2O)C(=O)NC2CN(S(=O)(=O)O)C2=O)cs1 (stereo not drawn) , report its MIC of antibiotic on Pseudomonas aeruginosa MK1184.
>32 µg/mL

Provide Pseudomonas aeruginosa MK1184 MIC of antibiotic reading for CC1C(NC(=O)C(=NOCc2cc(=O)c(O)cn2O)c2csc(N)n2)C(=O)N1S(=O)(=O)O (stereo not drawn) .
>32 µg/mL

Tell me its MIC of antibiotic on Pseudomonas aeruginosa MK1184: `C[C@H]1[C@H](NC(=O)/C(=N\OCc2cc(=O)c(O)cn2O)c2nccc(N)n2)C(=O)N1S(=O)(=O)O`
>32 µg/mL

* * *

I'd be grateful if you could share measured MIC of antibiotic at fixed inhibitor concentration of 4 mg/L for these entries.
- System: Serratia marcescens S6
- assay_text: MIC, NCCLS broth microdilution
- Assay type: cell-based
- condition: with 324 and clavulanate
State just the number; it will be interpreted in µg/mL.

Retrieve MIC of antibiotic at fixed inhibitor concentration of 4 mg/L measured for NC(=O)OCC1C(NC(=O)C(=NOCc2cc(=O)c(O)cn2O)c2csc(N)n2)C(=O)N1OCC(=O)O (centres unmarked) and print it.
0.5

Given `C[C@H](ON1C(=O)[C@@H](NC(=O)/C(=N\OCc2cc(=O)c(O)cn2O)c2csc(N)n2)[C@@H]1C)C(=O)O` , respond with its MIC of antibiotic at fixed inhibitor concentration of 4 mg/L.
0.25

Item `C[C@H]1[C@H](NC(=O)/C(=N\OCc2cc(=O)c(O)cn2O)c2csc(N)n2)C(=O)N1OCC(=O)O` : provide MIC of antibiotic at fixed inhibitor concentration of 4 mg/L
0.13

Return MIC of antibiotic at fixed inhibitor concentration of 4 mg/L for the following molecule: NC(=O)OCC1C(NC(=O)C(=NOCc2cc(=O)c(O)cn2O)c2nc(N)sc2Cl)C(=O)N1OS(=O)(=O)O (centres unmarked)
2

For CC1(C)C(NC(=O)C(=NOCc2cc(=O)c(O)cn2O)c2csc(N)n2)C(=O)N1OCC(=O)O (centres unmarked) , write its MIC of antibiotic at fixed inhibitor concentration of 4 mg/L.
0.25

* * *

- Tested on: Pseudomonas aeruginosa MK1184
- assay_text: MIC, NCCLS broth microdilution
- Assay type: cell-based
- condition: MIC of antibiotic compound 1 with the labelled bridged monobactam of formula II and clavulanate, 4 mg/L each
Give measured MIC of antibiotic at fixed inhibitor concentration (4 mg/L) for each item. Keep answers brief.

Look up and state reported MIC of antibiotic at fixed inhibitor concentration (4 mg/L) for O=C(Nc1ccc(O)c(O)c1)N1CC[C@@H]2[C@H]1C(=O)N2S(=O)(=O)[O-].[Na+] [Compound 306]
>32 µg/mL

Please give the documented MIC of antibiotic at fixed inhibitor concentration (4 mg/L) of O=C(Nc1ccccc1)N1CC[C@@H]2[C@H]1C(=O)N2S(=O)(=O)[O-].[Na+] [Compound 301]
>32 µg/mL

Return MIC of antibiotic at fixed inhibitor concentration (4 mg/L) for the following compound: CN(C)c1cc[n+](CC(=O)N2CC[C@@H]3[C@H]2C(=O)N3S(=O)(=O)[O-])cc1 [Compound 112]
>32 µg/mL

FYI, the data here is from patent US20160122320A1.
